- Target or system: IKZF2 (Helios) (Homo sapiens (Human), UniProt Q96SW2+Q9UKS7)
- Sequence (Q9UKS7 whole entry): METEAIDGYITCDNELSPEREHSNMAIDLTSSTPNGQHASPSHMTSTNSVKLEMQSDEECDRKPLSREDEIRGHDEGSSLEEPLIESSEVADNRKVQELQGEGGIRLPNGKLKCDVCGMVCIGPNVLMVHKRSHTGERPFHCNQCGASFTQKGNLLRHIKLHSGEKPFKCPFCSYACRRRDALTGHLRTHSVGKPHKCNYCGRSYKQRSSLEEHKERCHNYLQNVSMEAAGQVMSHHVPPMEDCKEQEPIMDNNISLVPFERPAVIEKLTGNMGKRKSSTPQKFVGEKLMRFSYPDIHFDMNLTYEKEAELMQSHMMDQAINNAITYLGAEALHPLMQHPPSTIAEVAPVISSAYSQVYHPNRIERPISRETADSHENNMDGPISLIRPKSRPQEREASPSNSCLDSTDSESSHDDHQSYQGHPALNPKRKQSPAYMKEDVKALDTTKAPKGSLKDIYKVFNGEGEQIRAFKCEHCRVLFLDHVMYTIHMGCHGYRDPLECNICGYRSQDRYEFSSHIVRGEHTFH
- Sequence (Q96SW2 whole entry): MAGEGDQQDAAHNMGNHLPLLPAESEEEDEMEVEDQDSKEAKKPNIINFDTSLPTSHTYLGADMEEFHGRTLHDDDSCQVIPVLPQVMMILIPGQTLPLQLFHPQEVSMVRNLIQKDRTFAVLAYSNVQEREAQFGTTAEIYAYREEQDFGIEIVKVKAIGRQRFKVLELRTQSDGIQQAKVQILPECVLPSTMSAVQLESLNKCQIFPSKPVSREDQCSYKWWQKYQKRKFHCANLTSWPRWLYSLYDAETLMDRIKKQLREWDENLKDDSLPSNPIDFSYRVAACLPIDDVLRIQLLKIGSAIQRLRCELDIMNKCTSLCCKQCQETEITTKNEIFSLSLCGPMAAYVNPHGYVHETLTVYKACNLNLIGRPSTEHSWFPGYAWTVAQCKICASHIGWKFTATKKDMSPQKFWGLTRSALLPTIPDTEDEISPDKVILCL
- Sequence (Q16531 whole entry partner): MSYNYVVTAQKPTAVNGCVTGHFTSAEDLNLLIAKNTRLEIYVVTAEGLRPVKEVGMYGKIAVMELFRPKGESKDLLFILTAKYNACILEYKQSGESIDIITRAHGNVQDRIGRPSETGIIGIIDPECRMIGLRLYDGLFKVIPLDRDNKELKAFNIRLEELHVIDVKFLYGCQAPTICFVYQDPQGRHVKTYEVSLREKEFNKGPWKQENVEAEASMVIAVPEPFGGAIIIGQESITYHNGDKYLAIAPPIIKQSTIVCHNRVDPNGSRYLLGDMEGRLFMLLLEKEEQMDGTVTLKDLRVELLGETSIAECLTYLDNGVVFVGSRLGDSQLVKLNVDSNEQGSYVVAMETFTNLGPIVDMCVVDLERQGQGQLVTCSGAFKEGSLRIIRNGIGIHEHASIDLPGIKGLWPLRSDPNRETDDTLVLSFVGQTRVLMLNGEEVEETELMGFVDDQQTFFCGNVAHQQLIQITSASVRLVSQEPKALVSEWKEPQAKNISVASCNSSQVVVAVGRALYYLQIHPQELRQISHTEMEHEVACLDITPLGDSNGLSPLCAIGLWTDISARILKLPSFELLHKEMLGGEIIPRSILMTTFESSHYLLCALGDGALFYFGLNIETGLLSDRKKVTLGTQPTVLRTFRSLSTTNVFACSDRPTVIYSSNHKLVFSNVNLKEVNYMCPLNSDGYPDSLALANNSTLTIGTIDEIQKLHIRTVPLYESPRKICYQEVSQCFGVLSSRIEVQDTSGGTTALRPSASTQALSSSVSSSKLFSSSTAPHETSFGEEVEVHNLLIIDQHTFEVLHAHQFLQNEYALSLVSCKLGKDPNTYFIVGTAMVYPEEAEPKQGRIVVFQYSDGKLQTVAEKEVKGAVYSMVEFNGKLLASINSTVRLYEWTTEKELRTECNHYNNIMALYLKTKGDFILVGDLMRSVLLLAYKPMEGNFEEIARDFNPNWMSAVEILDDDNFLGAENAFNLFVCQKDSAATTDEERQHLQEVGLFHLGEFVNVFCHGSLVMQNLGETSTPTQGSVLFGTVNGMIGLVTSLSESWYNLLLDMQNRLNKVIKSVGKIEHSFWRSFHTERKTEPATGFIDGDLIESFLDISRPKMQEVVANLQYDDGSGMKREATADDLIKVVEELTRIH
- Assay text: IKZF2 reporter degradation assay (HEK 293T IKZF2-mNeonGreen reporter cell line)
- Assay type: cell-based
- Setup conditions: HEK 293T reporter cells, 24 hour incubation
Please use Y for DC50 under 4 nM and N for everything else, ties included.

- Compound: "O=C1CCC(N2Cc3cc(O[C@H]4CCC[C@@H]4N4CC(C5CCC(F)(F)CC5)C4)ccc3C2=O)C(=O)N1 (stereo partly shown) [Compound 13]"
  Class assignment: "N"
- Compound: "O=C1CCC(N2Cc3c(ccc(O[C@H]4CCCC[C@@H]4N4CC(C5CC5)C4)c3F)C2=O)C(=O)N1 (stereo partly shown) [Compound 24]"
  Class assignment: "N"
- Compound: "CCOC1CCC(C2CN([C@H]3CCCC[C@@H]3Oc3ccc4c(c3)CN(C3CCC(=O)NC3=O)C4=O)C2)CC1 (stereo partly shown) [Compound 19]"
  Class assignment: "Y"
- Compound: "O=C1CCC(N2Cc3c(ccc(O[C@H]4CCCC[C@@H]4N4CC(C5CCC5)C4)c3F)C2=O)C(=O)N1 (stereo partly shown) [Compound 25]"
  Class assignment: "N"
- Compound: "CC(C)OC1CCC(C2CN([C@H]3CCCC[C@@H]3Oc3ccc4c(c3)CN(C3CCC(=O)NC3=O)C4=O)C2)CC1 (stereo partly shown) [Compound 17]"
  Class assignment: "Y"

====

- Target or system: IKZF1 (Ikaros) (Homo sapiens (Human), UniProt Q13422+Q96SW2)
- Sequence (Q13422 whole entry, one chain of several): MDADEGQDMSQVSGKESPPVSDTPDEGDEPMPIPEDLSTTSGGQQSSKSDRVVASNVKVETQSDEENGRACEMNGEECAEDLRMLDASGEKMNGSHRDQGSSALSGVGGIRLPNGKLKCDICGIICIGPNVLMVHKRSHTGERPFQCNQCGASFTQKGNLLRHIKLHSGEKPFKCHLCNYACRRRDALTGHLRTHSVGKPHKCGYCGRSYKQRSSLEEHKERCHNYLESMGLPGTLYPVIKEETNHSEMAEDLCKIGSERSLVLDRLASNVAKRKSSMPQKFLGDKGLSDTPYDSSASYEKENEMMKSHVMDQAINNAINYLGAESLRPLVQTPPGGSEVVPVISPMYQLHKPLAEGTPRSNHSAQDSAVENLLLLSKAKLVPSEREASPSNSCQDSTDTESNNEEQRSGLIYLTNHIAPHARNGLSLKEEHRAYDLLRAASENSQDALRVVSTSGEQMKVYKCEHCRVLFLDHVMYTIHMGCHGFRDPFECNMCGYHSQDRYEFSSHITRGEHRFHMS
- Assay text: IKZF1 reporter degradation assay (HEK 293T IKZF1-mNeonGreen reporter cell line)
- Type: cell-based
- Setup conditions: HEK 293T reporter cells, 24 hour incubation
Recorded DC50 values for a group of compounds are listed next.

- Compound: "O=C1CCC(N2Cc3cc(O[C@H]4CCCC[C@@H]4N4CC(C5CCCCC5)C4)ccc3C2=O)C(=O)N1 (some centres unmarked)"
  DC50: "> 30 µM"
- Compound: "O=C1CCC(N2Cc3cc(O[C@H]4CCCC[C@@H]4N4CC(C5CCC(F)(F)CC5)C4)ccc3C2=O)C(=O)N1 (some centres unmarked)"
  DC50: "> 30 µM"
- Compound: "CC(C)OC1CCC(C2CN([C@H]3CCCC[C@@H]3Oc3ccc4c(c3)CN(C3CCC(=O)NC3=O)C4=O)C2)CC1 (some centres unmarked) [Compound 16]"
  DC50: "> 30 µM"
- Compound: "O=C1CCC(N2Cc3c(ccc(O[C@H]4CCCC[C@@H]4N4CC(C5CC5)C4)c3F)C2=O)C(=O)N1 (some centres unmarked)"
  DC50: "> 30 µM"
- Compound: "O=C1CCC(N2Cc3cc(O[C@H]4CCCC[C@@H]4N4CC(C5CCC5)C4)c(F)cc3C2=O)C(=O)N1 (some centres unmarked)"
  DC50: "> 30 µM"
- Compound: "O=C1CCC(N2Cc3cc(O[C@H]4CCCC[C@@H]4N4CC(C5CCC5)C4)ccc3C2=O)C(=O)N1 (some centres unmarked)"
  DC50: "> 30 µM"
- Compound: "O=C1CCC(N2Cc3cc(O[C@H]4CCCC[C@@H]4N4CC(C5CC5)C4)c(F)cc3C2=O)C(=O)N1 (some centres unmarked)"
  DC50: "> 30 µM"
- Compound: "O=C1CCC(N2Cc3cc(O[C@H]4CCCC[C@@H]4N4CC(C5CCCC5)C4)ccc3C2=O)C(=O)N1 (some centres unmarked)"
  DC50: "> 30 µM"
- Compound: "O=C1CCC(N2Cc3cc(O[C@H]4CCCC[C@@H]4N4CC(C5CC(F)(F)C5)C4)ccc3C2=O)C(=O)N1 (some centres unmarked)"
  DC50: "> 30 µM"
- Compound: "O=C1CCC(N2Cc3cc(O[C@H]4CCC[C@@H]4N4CC(C5CCC(F)(F)CC5)C4)ccc3C2=O)C(=O)N1 (some centres unmarked)"
  DC50: "> 30 µM"
- Compound: "O=C1CCC(N2Cc3cc(O[C@H]4CCCC[C@@H]4N4CC(C5CCC(OC(F)F)CC5)C4)ccc3C2=O)C(=O)N1 (some centres unmarked)"
  DC50: "> 30 µM"
- Compound: "O=C1CCC(N2Cc3cc(O[C@H]4CCCC[C@@H]4N4CC(C5CCCC(F)(F)C5)C4)ccc3C2=O)C(=O)N1 (some centres unmarked)"
  DC50: "> 30 µM"
- Compound: "CCOC1CCC(C2CN([C@H]3CCCC[C@@H]3Oc3ccc4c(c3)CN(C3CCC(=O)NC3=O)C4=O)C2)CC1 (some centres unmarked)"
  DC50: "> 30 µM"
- Compound: "CC(C)OC1CCC(C2CN([C@H]3CCCC[C@@H]3Oc3ccc4c(c3)CN(C3CCC(=O)NC3=O)C4=O)C2)CC1 (some centres unmarked) [Compound 17]"
  DC50: "> 30 µM"

====

- Target or system: IKZF2 (Helios) (Homo sapiens (Human), UniProt Q96SW2+Q9UKS7)
- Assay text: IKZF2 reporter degradation assay (HEK 293T IKZF2-mNeonGreen reporter cell line)
- Type: cell-based
- Setup conditions: HEK-293T, 24 h, Table 3; 1 μM, HEK 293T reporter cells, 24 hour incubation
Recorded endpoint: inhibition at 1 µM (%)

- Molecule: "O=C1CCC(N2Cc3cc(O[C@H]4CCCC[C@@H]4N4CC(C5CCC5)C4)c(F)cc3C2=O)C(=O)N1 (some centres unmarked)"
  Endpoint value: 84.1
- Molecule: "O=C1CCC(N2Cc3cc(O[C@H]4CCCC[C@@H]4N4CC(C5CCCC(F)(F)C5)C4)ccc3C2=O)C(=O)N1 (some centres unmarked)"
  Endpoint value: 85
- Molecule: "O=C1CCC(N2Cc3cc(O[C@H]4CCCC[C@@H]4N4CC(C5CCC(F)(F)CC5)C4)ccc3C2=O)C(=O)N1 (some centres unmarked)"
  Endpoint value: 74.6
- Molecule: "O=C1CCC(N2Cc3cc(O[C@H]4CCC[C@@H]4N4CC(C5CC5)C4)ccc3C2=O)C(=O)N1 (some centres unmarked)"
  Endpoint value: 82.6
- Molecule: "O=C1CCC(N2Cc3cc(O[C@H]4CCCC[C@@H]4N4CC(C5CC(F)(F)C5)C4)ccc3C2=O)C(=O)N1 (some centres unmarked)"
  Endpoint value: 71.1
- Molecule: "O=C1CCC(N2Cc3cc(O[C@H]4CCCC[C@@H]4N4CC(C5CCCC5)C4)ccc3C2=O)C(=O)N1 (some centres unmarked)"
  Endpoint value: 86.3
- Molecule: "CC(C)OC1CCC(C2CN([C@H]3CCCC[C@@H]3Oc3ccc4c(c3)CN(C3CCC(=O)NC3=O)C4=O)C2)CC1 (some centres unmarked)"
  Endpoint value: 95.5
- Molecule: "CCOC1CCC(C2CN([C@H]3CCCC[C@@H]3Oc3ccc4c(c3)CN(C3CCC(=O)NC3=O)C4=O)C2)CC1 (some centres unmarked)"
  Endpoint value: 72.8

====

- Target or system: human E3 ligase component cereblon (CRBN) (Homo sapiens (Human))
- Assay text: Cereblon (CRBN) target engagement, NanoBRET TE Intracellular E3 Ligase Assay in transfected HEK-293T cells
- Setup conditions: second (untitled) table after Table 3, read-out: CRBN Binding EC50
pEC50: −log10 of the molar value.
Recorded pEC50 values for a group of compounds are listed next.
Recorded endpoint: pEC50

- Compound: "O=C1CCC(N2Cc3cc(O[C@H]4CCCC[C@@H]4N4CC(C5CCC(OC(F)F)CC5)C4)ccc3C2=O)C(=O)N1 (stereo partly shown)"
  Target or system: "human E3 ligase component cereblon (CRBN) (Homo sapiens (Human))"
  Recorded endpoint: "pEC50"
  Censor symbol: "="
  Endpoint value: 9.00
- Compound: "CCOC1CCC(C2CN([C@H]3CCCC[C@@H]3Oc3ccc4c(c3)CN(C3CCC(=O)NC3=O)C4=O)C2)CC1 (stereo partly shown)"
  Target or system: "human E3 ligase component cereblon (CRBN) (Homo sapiens (Human))"
  Recorded endpoint: "pEC50"
  Censor symbol: "="
  Endpoint value: 9.00
- Compound: "O=C1CCC(N2Cc3cc(O[C@H]4CCC[C@@H]4N4CC(C5CCC(F)(F)CC5)C4)ccc3C2=O)C(=O)N1 (stereo partly shown)"
  Target or system: "human E3 ligase component cereblon (CRBN) (Homo sapiens (Human))"
  Recorded endpoint: "pEC50"
  Censor symbol: "="
  Endpoint value: 8.30
- Compound: "O=C1CCC(N2Cc3cc(O[C@H]4CCCC[C@@H]4N4CC(C5CCC(F)(F)CC5)C4)ccc3C2=O)C(=O)N1 (stereo partly shown)"
  Target or system: "human E3 ligase component cereblon (CRBN) (Homo sapiens (Human))"
  Recorded endpoint: "pEC50"
  Censor symbol: "="
  Endpoint value: 8.70
- Compound: "COC1CCC(C2CN([C@H]3CCC[C@@H]3Oc3ccc4c(c3)CN(C35CC(C3)C(=O)NC5=O)C4=O)C2)CC1 (stereo partly shown)"
  Target or system: "human E3 ligase component cereblon (CRBN) (Homo sapiens (Human))"
  Recorded endpoint: "pEC50"
  Censor symbol: "<"
  Endpoint value: 5.00
- Compound: "O=C1CCC(N2Cc3cc(O[C@H]4CCCC[C@@H]4N4CC(C5CCCCC5)C4)ccc3C2=O)C(=O)N1 (stereo partly shown)"
  Target or system: "human E3 ligase component cereblon (CRBN) (Homo sapiens (Human))"
  Recorded endpoint: "pEC50"
  Censor symbol: "="
  Endpoint value: 8.52
- Compound: "O=C1CCC(N2Cc3cc(O[C@H]4CCCC[C@@H]4N4CC(C5CCCC(F)(F)C5)C4)ccc3C2=O)C(=O)N1 (stereo partly shown)"
  Target or system: "human E3 ligase component cereblon (CRBN) (Homo sapiens (Human))"
  Recorded endpoint: "pEC50"
  Censor symbol: "="
  Endpoint value: 8.40
